meta.source: paper doi:10.1101/2023.10.24.563163v2

target: KRAS (Homo sapiens, UniProt P01116, C118S/G12V); construct: residues 1-169, C118S background; His6 tag removed, E. coli; biotinylated for SPR; assay: SPR, biotinylated KRAS immobilised; type: binding
Sequence (P01116 1-169 G12V/C118S): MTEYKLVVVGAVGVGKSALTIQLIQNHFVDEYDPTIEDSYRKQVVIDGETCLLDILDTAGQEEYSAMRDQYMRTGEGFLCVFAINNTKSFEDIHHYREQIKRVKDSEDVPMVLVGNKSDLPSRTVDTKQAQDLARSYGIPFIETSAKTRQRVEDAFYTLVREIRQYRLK
quantity name: Kd (nM)

INSERT INTO measurements (input_smiles, observed) VALUES
  ('C[C@H]1CNCCCN1c1nccc(-c2noc([C@@]3(C)CCCc4sc(N)c(C#N)c43)n2)n1', 25);

----------
test system: GP2d; experiment: cells; design: pERK levels by capillary electrophoresis; conditions: GP2d, 6 h
pIC50: −log10 of the molar value.
Attribute: pIC50
quantity name: pIC50

INSERT INTO measurements (compound, experimental_system, observed) VALUES
  ('C#Cc1c(F)ccc2cc(O)cc(-c3ncc4c(N5C[C@H]6CC[C@@H](C5)N6)nc(OC[C@@]56CCCN5C[C@H](F)C6)nc4c3F)c12 [MRTX1133]', 'GP2d', 8.89),
  ('Cc1ncsc1-c1ccc(CNC(=O)[C@@H]2C[C@@H](O)CN2C(=O)[C@@H](NC(=O)CCCCCN2CCCN(c3nccc(-c4noc([C@@]5(C)CCCc6sc(N)c(C#N)c65)n4)n3)[C@@H](C)C2)C(C)(C)C)cc1 [compound 3]', 'GP2d', 6.11),
  ('Cc1ncsc1-c1ccc(CNC(=O)[C@@H]2C[C@@H](O)CN2C(=O)[C@@H](c2cc(OCCCCN3CCCN(c4nccc(-c5noc([C@@]6(C)CCCc7sc(N)c(C#N)c76)n5)n4)[C@@H](C)C3)no2)C(C)C)cc1 [compound 4]', 'GP2d', 8.51);
